cleavage of the SUMO fusion protein values by entry
# test.target: bdSUMO Mut15-MBP fusion protein
A number alone suffices; assume % cleavage.

Problem: Fill blank: measured cleavage of the SUMO fusion protein of the protein bdSENP1^MutB protease (protein) PFVPLTDEDEDNVRHALGGRKRSETLSVHEASSIVITREILQCLNDKEWLNDEVINLYLELLKERELREPNKFLKCHFFNTFFYKKLINGGYDYKSVREWTTKRKLGYNLIDCDKIFVPIHKDVHWCLAVINIKEKKFQYLDSLGYMDMKALRILAKYLVDEVKDKSGKQIDVHAWKQEGVQNLPLQENGWDCGMFMLKYIDFYSRDMELVFGQKHMSYFRRRTAKEILDLKAG is ____.
Result: 100

Turning to the following protein.
Problem: Fill blank: measured cleavage of the SUMO fusion protein of the protein bdSENP1^MutH (protein) PFVPLTDEDEDNVRHALGGRKPSETLSVHEASAIVITREILQCLNDKEWLNDEVINLYLELLKERELREPNKFLKCHFFNTFFYKKLINGYDYKSVREWTTMRKLGYNLIDCDKIFVPIHKDVHWCLAVINIKEKKFQYLDSLGYMDMKALRILAKYLVDEVKDKSGKQIDVHAWKQEGVQNLPLQENGWDCGMFMLKYIDFYSRDMELVFGQKHMSYFRRRTAKEILDLKAG is ____.
Result: 100
